Would you kindly list Ratio/Fc-WT for each of these binders?
- Experimental target: T1, FcRn-p3 fusion protein (human, UniProt P55899 24-297; P61769 21-119)
- T1 construct: baculovirus expressed; coated on ELISA wells; not shown: amino terminal part of bacteriophage p3 protein and CVDE protein
- T1 sequence (P55899 24-297, chain 1 of 2): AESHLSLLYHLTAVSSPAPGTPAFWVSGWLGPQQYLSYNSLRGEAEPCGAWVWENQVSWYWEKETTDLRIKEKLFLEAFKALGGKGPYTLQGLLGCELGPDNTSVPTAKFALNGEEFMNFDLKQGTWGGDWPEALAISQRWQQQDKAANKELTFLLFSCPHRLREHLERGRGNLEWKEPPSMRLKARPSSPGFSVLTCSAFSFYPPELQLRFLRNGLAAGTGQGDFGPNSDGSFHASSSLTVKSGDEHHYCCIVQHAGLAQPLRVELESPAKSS
- T1 sequence (P61769 21-119, chain 2 of 2): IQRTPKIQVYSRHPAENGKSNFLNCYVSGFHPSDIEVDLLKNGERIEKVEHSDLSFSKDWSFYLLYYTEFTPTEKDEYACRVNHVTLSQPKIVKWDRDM
- Test protocol: phage ELISA pH6
Answers are plain numbers, in fold.

Worked examples follow.
1. S3A_07 (other, EU numbering) CPPCPAPELLGGPSVFLFPPKPKDTLMISRTPEVTCVVEDVSHEDPEVKFNWYVDGVEVHNAKTKPREEQYNSTYRVVSVLTVLHQDWLNGKEYKCKVSNKALPAPIEKTISKAKGQPREPQVYTLPPSRDELTKNQVSLTCLVKGFYPSDIVVEWGSNGQPENNYKTTPPVLDSDGSFFLYSKLTVDKSRWQQGNVFSCSVMHEALHNHYTQKSLSLSPGK; 3.5
2. B4A_03 (other, EU numbering) CPPCPAPELLGGPSVFLFPPKPKDTLMISRTPEVTCVVVDVSHEDPEVKFNWYVDGVEVHNAKTKPWEEQYNSTYRVVSVLPVLHQDWLNGKEYKCKVSNKALPVPIEKTISKAKGQPREPQVYTLPPSRDELTKNQVSLTCLVKGFYPSDIAVEWESNGQPENNYKTTPPVLDSDGSFFLYSKLTVDKSRWQQGNVFSCSVMHEALHSHYTQKSLSLSPGK; 3.7

Query binder follows.
I have this binder here, B5A_16 (other, EU numbering) CPPCPAPELLGGPAVFLFPPKPKDTLMISRTPEVTCVVVDVSHEDPEVKFNWYVDGVEVHNAKTKPREEQYNGTYRVVSVLTVLHQDWLDGKEYKCKVSNKALPAPIEKTISKAKGQPREPRVYTLPPSRDELTKNQVSLTCLVKGFYPSDIAVEWESNGQPENNYKTTPPVLDSDGSFFLYSKLTVDKSRWQQGNVFSCSVMHEALHYHYTQKRLSLSPGK , and I need its recorded Ratio/Fc-WT.
5.6

Data origin, for the record: patent USRE46585
